# Measured On: recombinant human IL-31 (C108S), produced in E. coli by ZymoGenetics, MW 18 kDa (human), Q6EBC2
# Measurement Protocol: cell-based or functional assay
Experimental Readout: Average Fold loss in potency relative to 292.12.3.1, BAF-3(hIL-31R) proliferation assay (fold)
// note: answer is a bare numeric in fold

Recorded results for 2 binders are shown here.
Binder: humanized 292.12.3.1 construct clone 11 (12VH5-gly + HC(fback)) (antibody, human IgG4, V domains shown) VH: EVQLVQSGAEVKKPGESLKISCKASGYTLTRYWMQWVRQMPGKGLEWMGAIYPGDGDTRYSPSFQGQVTLTADKSISTAYLQWSSLKASDTAMYYCAFPDGYYAAPYGMDYWGQGTTVTVSS VL: DIQMTQSPSSLSASVGDRVTITCRASGNIHNYLAWYQQKPGKVPKLLIYNAKTLADGVPSRFSGSGSGTDFTLTISSLQPEDVATYYCQHFWSTPWTFGQGTKVEIKR
Unit Tag: fold
Test Value: 11.6
//
Binder: humanized 292.12.3.1 construct clone 21 (12VH5-gly + HC(G24A, S28T, F29L, R94F) + LC(fback)) (antibody, human IgG4, V domains shown) VH: EVQLVQSGAEVKKPGESLKISCKASGYTLTRYWMQWVRQMPGKGLEWMGAIYPGDGDTRYSPSFQGQVTISADKSISTAYLQWSSLKASDTAMYYCAFPDGYYAAPYGMDYWGQGTTVTVSS VL: DIQMTQSPSSLSASVGDRVTITCRASGNIHNYLAWYQQKPGKVPKLLIYNAKTLADGVPSRFSGSRSETQYSLTISSLQPEDVATYYCQHFWSTPWTFGQGTKVEIKR
Unit Tag: fold
Test Value: 3.5

Q: Note Average Fold loss in potency relative to 292.12.3.1, BAF-3(hIL-31R) proliferation assay for the binder shown: humanized 292.12.3.1 construct clone 7 (12VH1-gly + fback) (antibody, human IgG4, V domains shown, also called 07) VH: QVQLVQSGAEVKKPGASVKVSCKASGYTLTRYWMQWVRQAPGQGLEWMGAIYPGDGDTRYSQKFQGRVTLTADKSISTAYMELSSLRSEDTAVYYCAFPDGYYAAPYGMDYWGQGTLVTVSS VL: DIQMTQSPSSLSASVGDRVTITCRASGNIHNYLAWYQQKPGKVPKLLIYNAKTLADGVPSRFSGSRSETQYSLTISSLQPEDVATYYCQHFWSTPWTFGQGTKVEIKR
Ans: 3.3
